What follows is a collection of pKi values obtained with Mu-type opioid receptor (Homo sapiens, UniProt P35372).
Sequence (P35372 whole entry): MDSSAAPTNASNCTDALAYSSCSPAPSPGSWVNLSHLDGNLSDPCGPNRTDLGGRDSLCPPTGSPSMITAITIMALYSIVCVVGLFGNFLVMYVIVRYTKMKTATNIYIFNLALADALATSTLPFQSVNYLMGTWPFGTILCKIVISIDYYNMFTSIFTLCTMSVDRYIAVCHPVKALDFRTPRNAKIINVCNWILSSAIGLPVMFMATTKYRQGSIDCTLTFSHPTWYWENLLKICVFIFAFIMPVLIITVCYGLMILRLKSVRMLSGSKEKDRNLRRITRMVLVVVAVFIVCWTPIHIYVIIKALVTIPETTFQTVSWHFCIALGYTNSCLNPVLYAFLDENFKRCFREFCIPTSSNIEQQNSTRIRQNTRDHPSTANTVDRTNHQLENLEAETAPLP
pKi: −log10 of the molar value. Where a SMILES comes first, the peptide text is derived from it. [ ]: non-standard residue; d: D form. Tic = O=C(O)[C@@H]1Cc2ccccc2CN1

molecule	pKi
NC(=O)CC[C@H](NC(=O)[C@H](Cc1ccccc1)NC(=O)[C@H](Cc1ccccc1)NC(=O)[C@@H]1Cc2ccccc2CN1C(=O)[C@@H](N)Cc1ccc(O)cc1)C(=O)O	< 5.35
CC(=O)NCCCC[C@@H](NC(=O)[C@H](Cc1ccccc1)NC(=O)[C@@H]1Cc2ccccc2CN1C(=O)[C@@H](N)Cc1ccc(O)cc1)C(=O)O	< 5.35
N[C@@H](Cc1ccc(O)cc1)C(=O)N1Cc2ccccc2C[C@H]1C(=O)N[C@@H](Cc1ccccc1)C(=O)O (H-Tyr-[Tic]-Phe-OH)	< 5.35

Could you now look at the following molecule, please?
Please fill in: pKi reported for NC(=O)C[C@@H](NC(=O)[C@H](Cc1ccccc1)NC(=O)[C@H](Cc1ccccc1)NC(=O)[C@@H]1Cc2ccccc2CN1C(=O)[C@@H](N)Cc1ccc(O)cc1)C(=O)O = 5.49

Cited source: ChEMBL document CHEMBL1133571
